tested on: A498 renal; assay: NCI tumour cell line growth inhibition, 48 h
Can you tell me TGI for the items I'm about to list?

Q. Quick one: TGI of O=C(NC(Cc1ccc(I)cc1)C(=O)O)c1ccc(Cl)cc1 (stereo unspecified) ?
A. > 100 µM

Could I get TGI for every one of these entries?
1. O=C1NC(=N[C@H](CO)c2ccccc2)S/C1=C\c1ccc2ncccc2c1
2. COC1=CC2CCN3Cc4cc5c(cc4C(C1O)C23)OCC5 (stereo unspecified)
3. COCCOC1=C(Cl)C(=O)c2c(O)ccc(O)c2C1=O
4. CCOC(=O)c1cc(-c2ccccc2)[nH]c1N/N=C/c1c(Cl)cccc1Cl

A.
1. 7.13 µM
2. 98.8 µM
3. 22.2 µM
4. 43.7 µM

// each compound listed below needs its TGI
1. CO/N=C(\C)c1cccc(Nc2nc3ccccc3c3occc23)c1
2. O=C(CSc1nc2ccc(I)cc2c(=O)n1Cc1ccccc1)NN1C(=O)c2ccccc2C1=O
3. CCCCc1ccc(Nc2nc(Cl)c3ncn(C4CC(Oc5ccc(C)cc5)C(COc5ccc(C)cc5)O4)c3n2)cc1 (stereo unspecified)
4. COc1ccc(/C=C2/CN(CCC#N)C/C(=C\c3ccc(OC)cc3)C2=O)cc1
5. COC(=O)C(/C(=N/N)C(=O)Nc1cccc(O)c1)c1nc2ccccc2[nH]c1=O (stereo unspecified)
6. COc1cc(NC(C)CCCN2C(=O)c3ccccc3C2=O)c2ncccc2c1OC (stereo unspecified)
7. Clc1ccc(-c2nc3ccc4ccccc4c3c3c2CCCC3)cc1
8. O=C(/C=C/c1ccc(O)cc1)c1cc(Cl)ccc1O

A.
1: 17.3 µM; 2: 35.7 µM; 3: > 100 µM; 4: 21.5 µM; 5: > 100 µM; 6: > 100 µM; 7: > 100 µM; 8: > 100 µM

Provide the reported TGI of each entry below, same order.
1. O=C(Nc1ccccc1)Nc1ccc(Cl)c(Cl)c1
2. C[n+]1c2ccccc2c(CNC(CS)C(=O)O)c2ccccc21 (stereo unspecified)
3. Nc1nc2ncn(CC(O)COC(=O)c3ccccc3)c2c(=O)[nH]1 (stereo unspecified)
4. N#CC1CCCCC1NC1(C#N)CCCCC1 (stereo unspecified)
5. N=C(N)SCc1cccc([N+](=O)[O-])c1
6. CC1OC(OCC2OC(Oc3ccc(C4CC(=O)c5c(O)cc(O)cc5O4)cc3O)C(O)C(O)C2O)C(O)C(O)C1O (stereo unspecified)
7. COC(=O)C1=C(\O)C[C@@]2(C)CC[C@@H](C(=O)OC)C2C/C=C\1C(=O)OC (stereo partly specified)
8. CCOC(=O)C(NC(=O)c1cccc(Cl)c1)(N1CCN(c2cc3c(cc2F)c(=O)c(C(=O)O)cn3C2CC2)CC1)C(F)(F)F (stereo unspecified)

A.
1: 68.5 µM; 2: 53.8 µM; 3: > 100 µM; 4: > 100 µM; 5: > 74 µM; 6: > 100 µM; 7: 75.3 µM; 8: 55.7 µM
